Readings of T1/2 for the listed molecules
# Method notes: Ester prodrugs: stability in buffer (pH 7)
# Format: physicochemical
Measured endpoint: T1/2 (days)

[[record]]
input_smiles = "COc1ncnc2c1ncn2[C@@H]1O[C@H](COC(=O)C(C)(C)C)[C@@H](O)[C@@H]1OC(=O)C(C)(C)C"
measured_endpoint = "T1/2"
units_of_measure = "days"
modifier = "="
endpoint_value = 178

[[record]]
input_smiles = "CCC(=O)O[C@H]1[C@H](OC(=O)CC)[C@@H](CO)O[C@H]1n1cnc2c(OC)ncnc21"
measured_endpoint = "T1/2"
units_of_measure = "days"
modifier = "="
endpoint_value = 525

[[record]]
input_smiles = "COc1ncnc2c1ncn2[C@@H]1O[C@H](COS(C)(=O)=O)[C@@H](OS(C)(=O)=O)[C@@H]1OS(C)(=O)=O"
measured_endpoint = "T1/2"
units_of_measure = "days"
modifier = ">"
endpoint_value = 70

[[record]]
input_smiles = "CCCC(=O)O[C@H]1[C@H](OC(=O)CCC)[C@@H](CO)O[C@H]1n1cnc2c(OC)ncnc21"
measured_endpoint = "T1/2"
units_of_measure = "days"
modifier = "="
endpoint_value = 13.1

[[record]]
input_smiles = "CCC(=O)OC[C@H]1O[C@@H](n2cnc3c(OC)ncnc32)[C@@H](OC(=O)CC)[C@@H]1OC(=O)CC"
measured_endpoint = "T1/2"
units_of_measure = "days"
modifier = "="
endpoint_value = 127

[[record]]
input_smiles = "CCCCC(=O)OC[C@H]1O[C@@H](n2cnc3c(OC)ncnc32)[C@@H](OC(=O)CCCC)[C@@H]1O"
measured_endpoint = "T1/2"
units_of_measure = "days"
modifier = "="
endpoint_value = 51.6

[[record]]
input_smiles = "COc1ncnc2c1ncn2[C@@H]1O[C@H](COC(C)=O)[C@@H](OC(C)=O)[C@@H]1O"
measured_endpoint = "T1/2"
units_of_measure = "days"
modifier = "="
endpoint_value = 30.6

[[record]]
input_smiles = "COc1ncnc2c1ncn2[C@@H]1O[C@H](COC(C)=O)[C@@H](OC(C)=O)[C@@H]1OC(C)=O"
measured_endpoint = "T1/2"
units_of_measure = "days"
modifier = "="
endpoint_value = 15.2

